These entries and their values trace back to patent US4988681A.

# assay_protocol: Pharmacokinetic evaluation: plasma concentration in rats
# Assay type: in vivo, Male SD rats
# test_conditions: rat, plasma; po 10 mg/kg, 1 h
# Protocol: (4) Pharmacokinetic evaluations Male SD rats ([…]) were divided into groups each consisting of three animals. […] Furthermore, cilastatin was intravenously administered to a 14th group as a control group. Plasma samples were taken periodically from the carotid artery through a cannula inserted into it at the points of 1/12, 1/4, 1/2, 1, 2, 4, 6, 8 and 24 hours after the administration. The area under the curve (AUC) of the plasma concentration was determined according to the trapezoidal rule.
Reported concentration at 1 h values for the following molecules.
attribute_measured: concentration at 1 h (ng/mL)

>>> recorded_number("O=C(O)/C(=C/C1CCCCC1)CP(=O)(O)CC1CCCCC1 [Compound No. 28]")
2500
>>> recorded_number("CC1(C)CC1P(=O)(O)C/C(=C\\C1CCCCC1)C(=O)O (centres unmarked) [Compound No. 5]")
5300
>>> recorded_number("CC(C)CP(=O)(O)C/C(=C\\C1CCCCC1)C(=O)O [Compound No. 2]")
5400
>>> recorded_number("O=C(O)/C(=C/C1CCCCC1)CP(=O)(O)CC1CCCC1 [Compound No. 17]")
5000
>>> recorded_number("CC(C)CP(=O)(O)C/C(=C\\C1CC1)C(=O)O [Compound No. 10]")
1200
